// read-out IC50, gathered for Cytochrome P450 2C9 (Homo sapiens, UniProt P11712) from published studies

# count of solved cases: 2
CCn1c(CNC(=O)c2nc(Cl)cnc2N)[n+](CC)c2ccc(OCC(=O)NCCOCP(C)(C)=O)cc21 | > 50 µM
Cn1c2c(c3ccccc31)CCN(C1CCN(C(=O)C3(F)CCN(Cc4ccnc(N)c4)CC3)CC1)CC2 | > 30 µM

-- ask Provide the documented IC50 with Cytochrome P450 2C9 (Homo sapiens, UniProt P11712) as the system for "COc1ccc2cc(C(=O)/C=C/c3cccnc3)ccc2c1"
-- reply > 20 µM

-- ask Provide the documented IC50 with Cytochrome P450 2C9 (Homo sapiens, UniProt P11712) as the system for "CN1CCC[C@H](N(c2cc(C#CC(C)(C)C)sc2C(=O)O)C(=O)[C@H]2CC[C@H](C)CC2)C1=O"
-- reply > 30 µM

-- ask Provide the documented IC50 with Cytochrome P450 2C9 (Homo sapiens, UniProt P11712) as the system for CNC(=O)CCC1(c2ccccc2)CCCN(C(=O)Nc2ccc(Cl)cc2)C1 (centres undefined)
-- reply 10 µM

-- ask Provide the documented IC50 with Cytochrome P450 2C9 (Homo sapiens, UniProt P11712) as the system for "Nc1ncccc1-c1nc2cc(-c3cccnc3)cnc2n1-c1ccc(CNC(=O)c2ccccc2)cc1"
-- reply > 10 µM

-- ask Provide the documented IC50 with Cytochrome P450 2C9 (Homo sapiens, UniProt P11712) as the system for "NC(=O)c1nc(-c2cccc(-c3ccccc3C(F)(F)F)c2)c[nH]1"
-- reply > 40 µM

-- ask Provide the documented IC50 with Cytochrome P450 2C9 (Homo sapiens, UniProt P11712) as the system for "CC(C)N1CCC(Oc2ccc3c(c2)cc2n3C[C@@H](C)N(CC3CC3)C2=O)CC1"
-- reply > 50 µM

-- ask Provide the documented IC50 with Cytochrome P450 2C9 (Homo sapiens, UniProt P11712) as the system for "CCn1c([C@@H](C)NS(=O)(=O)c2ccc(C#N)nc2)nc2cnc(C3CC3)cc21"
-- reply > 20 µM
